Hi there, I'd appreciate the recorded IC50 for every entry that follows.
Write the number in nM without appending the unit.

Asked: // lookup IC50 | system=integrase (Human immunodeficiency virus type 1 group M subtype B, UniProt P04585) | key= O=C(c1cc(Cl)c2[nH]c(Cc3ccc(F)cc3)nc2c1O)N1CCCC1
Given back: 2030

Asked: Observed IC50 on integrase (Human immunodeficiency virus type 1 group M subtype B, UniProt P04585) for COC(=O)c1cc(Cl)c2[nH]c(Cc3ccc(F)cc3)nc2c1O , please.
Given back: 1610

Asked: Please tell me: IC50 of Cc1nc2c(O)c(-c3nnc(Cc4ccccc4)o3)cc(Cl)c2[nH]1 , system integrase (Human immunodeficiency virus type 1 group M subtype B, UniProt P04585)?
Given back: 704

Asked: Observed IC50 on integrase (Human immunodeficiency virus type 1 group M subtype B, UniProt P04585) for O=C(c1nccs1)c1ccc2[nH]c(Cc3ccc(F)cc3)nc2c1O , please.
Given back: 538

Asked: Fill in the recorded IC50 for this compound, with integrase (Human immunodeficiency virus type 1 group M subtype B, UniProt P04585) as test system: COC(=O)c1cc(Cl)c2c(nc(Cc3ccc(F)cc3)n2C)c1O
Given back: 1270

Asked: Please tell me: IC50 of Cc1nc2c(O)c(-c3nnc(COc4ccccc4)o3)cc(Cl)c2[nH]1 , system integrase (Human immunodeficiency virus type 1 group M subtype B, UniProt P04585)?
Given back: 1540

Asked: Requested read-out IC50, target or system integrase (Human immunodeficiency virus type 1 group M subtype B, UniProt P04585), entry O=C(c1ccc(Sc2ccc(F)cc2)o1)c1cc(Cl)c2cccnc2c1O
Given back: 1050

Asked: Given the entry O=C(O)c1cc(Cl)c2cc(Cc3ccc(F)cc3)cnc2c1O , what IC50 was observed with integrase (Human immunodeficiency virus type 1 group M subtype B, UniProt P04585)?
Given back: 332

Data provenance is patent US7148237B2.
